# assayed-target: human recombinant β-secretase (Homo sapiens)
# Sequence (P56817 46-501): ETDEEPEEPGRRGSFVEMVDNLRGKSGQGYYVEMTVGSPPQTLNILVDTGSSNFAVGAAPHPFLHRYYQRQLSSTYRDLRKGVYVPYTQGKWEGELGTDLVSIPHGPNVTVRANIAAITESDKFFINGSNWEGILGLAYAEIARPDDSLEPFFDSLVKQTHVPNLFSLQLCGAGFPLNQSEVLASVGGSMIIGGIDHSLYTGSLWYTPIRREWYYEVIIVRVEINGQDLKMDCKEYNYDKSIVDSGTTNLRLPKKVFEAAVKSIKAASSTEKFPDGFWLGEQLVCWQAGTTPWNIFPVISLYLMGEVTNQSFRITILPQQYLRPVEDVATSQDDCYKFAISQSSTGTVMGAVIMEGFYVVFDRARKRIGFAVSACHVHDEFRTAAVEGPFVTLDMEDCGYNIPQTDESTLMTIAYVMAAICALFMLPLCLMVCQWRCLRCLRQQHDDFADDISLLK
# assay-overview: β-secretase (BACE-1) FRET enzyme assay
# test-conditions: FRET, sodium acetate pH 4.5, 60 min; triplicate
pIC50: −log10 of the molar value.
property: pIC50

Below: 5 compounds and their reported pIC50.
# compound, property, measured-result
measured = [
    ("CC(=O)c1cc2cc(-c3cccc(F)c3)oc2cc1O [Compound 2b]", "pIC50", "< 4.00"),
    ("CC(=O)c1cc2cc(-c3ccccc3)oc2cc1O [Compound 2a]", "pIC50", 4.20),
    ("COc1cc(OC)cc(-c2cc3cc(C(C)=O)c(O)cc3o2)c1 [Compound 2h]", "pIC50", 4.59),
    ("CC(=O)c1cc2cc(-c3ccc(Cl)cc3)oc2cc1O [Compound 2e]", "pIC50", "< 4.00"),
    ("CC(=O)c1cc2cc(-c3cccc(Cl)c3)oc2cc1O [Compound 2d]", "pIC50", "< 4.00"),
]

// query Recorded pIC50 of CC(=O)c1cc2cc(-c3ccc(F)cc3)oc2cc1O [Compound 2c] , please.
// result < 4.00

// query What do you have for COc1ccc(-c2cc3cc(C(C)=O)c(O)cc3o2)cc1 [Compound 2g] ?
// result 4.56

// query What do you have for CC(=O)c1cc2cc(-c3ccc(C)cc3)oc2cc1O [Compound 2f] ?
// result < 4.00

====

# assayed-target: PTP1B (Homo sapiens)
# Sequence (P18031 whole entry): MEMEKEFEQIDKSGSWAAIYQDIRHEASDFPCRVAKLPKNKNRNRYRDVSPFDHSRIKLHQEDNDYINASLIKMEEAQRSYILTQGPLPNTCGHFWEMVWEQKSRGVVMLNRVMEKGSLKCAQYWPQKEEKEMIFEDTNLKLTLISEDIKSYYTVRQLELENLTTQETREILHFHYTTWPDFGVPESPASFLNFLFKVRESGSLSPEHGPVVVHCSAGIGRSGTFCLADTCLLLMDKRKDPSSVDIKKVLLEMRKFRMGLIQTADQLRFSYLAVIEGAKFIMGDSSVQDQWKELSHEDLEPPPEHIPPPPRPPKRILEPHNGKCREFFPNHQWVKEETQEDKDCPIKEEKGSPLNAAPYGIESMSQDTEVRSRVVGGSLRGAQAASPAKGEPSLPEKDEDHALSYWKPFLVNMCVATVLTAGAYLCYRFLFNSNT
Field: label. Allowed values: Criterion met (IC50 < 30 µM) or Criterion not met (IC50 >= 30 µM).

Solved cases (3 shown):
# compound-structure, label-class
measured = [
    ("CC(=O)c1cc2cc(-c3ccccc3)oc2cc1O", "Criterion met"),
    ("COc1ccc(-c2cc3cc(C(C)=O)c(O)cc3o2)cc1", "Criterion not met"),
    ("COc1cc(OC)cc(-c2cc3cc(C(C)=O)c(O)cc3o2)c1", "Criterion met"),
]

Field: next compound
// query Check if IC50 falls below 30 µM for "CC(=O)c1cc2cc(-c3ccc(Cl)cc3)oc2cc1O" .
// result Criterion met

====

The following compounds are shown together with reported IC50 values.
# assayed-target: α-Glucosidase type 1 from baker's yeast (Saccharomyces cerevisiae, UniProt P53341)
# Construct: purchased Sigma Aldrich (Pty) Ltd
# Sequence (P53341 whole entry): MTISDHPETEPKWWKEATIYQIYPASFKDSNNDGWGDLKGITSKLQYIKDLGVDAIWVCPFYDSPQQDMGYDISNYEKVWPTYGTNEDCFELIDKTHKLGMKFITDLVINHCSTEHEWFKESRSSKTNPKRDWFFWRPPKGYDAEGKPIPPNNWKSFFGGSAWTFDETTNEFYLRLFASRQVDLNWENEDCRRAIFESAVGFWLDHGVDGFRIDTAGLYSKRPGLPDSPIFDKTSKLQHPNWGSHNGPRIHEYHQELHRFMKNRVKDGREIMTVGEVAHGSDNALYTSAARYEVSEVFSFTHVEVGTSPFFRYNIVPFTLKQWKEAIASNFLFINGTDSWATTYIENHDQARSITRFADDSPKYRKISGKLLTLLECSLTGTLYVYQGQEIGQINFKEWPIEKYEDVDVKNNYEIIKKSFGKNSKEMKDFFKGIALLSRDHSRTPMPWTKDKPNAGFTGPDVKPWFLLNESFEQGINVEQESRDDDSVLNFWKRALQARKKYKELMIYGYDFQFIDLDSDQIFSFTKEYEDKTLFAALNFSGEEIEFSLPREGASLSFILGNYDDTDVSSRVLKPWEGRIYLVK
# assay-overview: biochemical
# Format: biochemical
# test-conditions: yeast enzyme, PNP-G substrate, pH 6.8, 37 °C; mean ± SD, triplicate; read-out: IC50 α-Glucosidase
Could you give me the number in nM? Just the number is fine.

Below: 3 compounds and their reported IC50.
# compound, assayed-target, measured-result
records = [
    ("CC(=O)c1cc2cc(-c3ccc(F)cc3)oc2cc1O [Compound 2c]", "α-Glucosidase type 1 from baker's yeast (Saccharomyces cerevisiae, UniProt P53341)", 110),
    ("COc1ccc(-c2cc3cc(C(C)=O)c(O)cc3o2)cc1 [Compound 2g]", "α-Glucosidase type 1 from baker's yeast (Saccharomyces cerevisiae, UniProt P53341)", 560),
    ("CC(=O)c1cc2cc(-c3cccc(F)c3)oc2cc1O [Compound 2b]", "α-Glucosidase type 1 from baker's yeast (Saccharomyces cerevisiae, UniProt P53341)", 4650),
]

Note: attention shifts to another entry.
// query Recorded IC50 of COc1cc(OC)cc(-c2cc3cc(C(C)=O)c(O)cc3o2)c1 [Compound 2h] , please.
// result 780
